molecular target: recombinant human SAE enzyme (Homo sapiens (Human)); experiment: SAE HTRF enzyme assay; type: biochemical; conditions: Concentration 0.111 μM
Sequence (Q9UBT2 whole entry): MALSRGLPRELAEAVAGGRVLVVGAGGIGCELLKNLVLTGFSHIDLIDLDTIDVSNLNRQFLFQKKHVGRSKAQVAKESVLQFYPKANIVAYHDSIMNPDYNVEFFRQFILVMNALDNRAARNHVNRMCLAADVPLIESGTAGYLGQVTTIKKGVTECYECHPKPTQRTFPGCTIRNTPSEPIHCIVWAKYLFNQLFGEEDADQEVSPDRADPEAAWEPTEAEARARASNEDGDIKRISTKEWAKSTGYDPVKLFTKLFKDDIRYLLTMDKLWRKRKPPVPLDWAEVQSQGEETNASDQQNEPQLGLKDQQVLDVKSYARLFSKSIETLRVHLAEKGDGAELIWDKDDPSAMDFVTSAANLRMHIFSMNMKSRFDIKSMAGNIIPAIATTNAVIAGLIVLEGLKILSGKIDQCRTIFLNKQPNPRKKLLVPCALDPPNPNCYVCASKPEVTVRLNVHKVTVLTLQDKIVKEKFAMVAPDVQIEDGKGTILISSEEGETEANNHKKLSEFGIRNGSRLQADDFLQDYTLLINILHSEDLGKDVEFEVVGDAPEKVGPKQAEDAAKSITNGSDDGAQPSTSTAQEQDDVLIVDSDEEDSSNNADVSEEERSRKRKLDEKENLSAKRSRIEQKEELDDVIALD
Sequence (Q9UBE0 whole entry partner): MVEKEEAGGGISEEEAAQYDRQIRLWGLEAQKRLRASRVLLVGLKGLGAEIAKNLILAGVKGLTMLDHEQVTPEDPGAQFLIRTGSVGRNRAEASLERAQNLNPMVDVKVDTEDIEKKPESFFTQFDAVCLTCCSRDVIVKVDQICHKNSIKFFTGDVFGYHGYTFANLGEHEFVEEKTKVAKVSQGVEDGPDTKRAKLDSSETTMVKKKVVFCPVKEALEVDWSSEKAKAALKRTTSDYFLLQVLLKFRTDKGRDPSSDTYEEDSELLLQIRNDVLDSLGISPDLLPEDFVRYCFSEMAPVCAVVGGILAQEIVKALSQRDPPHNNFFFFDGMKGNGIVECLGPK
MEASUREMENT_KIND: Percent Inhibition

Ask: # input compound: NS(=O)(=O)OC[C@H]1C[C@@H](Nc2ncncc2C(=O)c2cc([C@@H]3NCCc4ccc(Cl)nc43)c(Cl)s2)C[C@@H]1O.NS(=O)(=O)OC[C@H]1C[C@@H](Nc2ncncc2C(=O)c2cc([C@H]3NCCc4ccc(Cl)nc43)c(Cl)s2)C[C@@H]1O (mixture of isomers) ; wanted: its Percent Inhibition
Reply: 100

Ask: # input compound: "C#Cc1cccc(Cc2csc(C(=O)c3cncnc3N[C@@H]3C[C@H](COS(N)(=O)=O)[C@@H](O)C3)c2)c1" ; wanted: its Percent Inhibition
Reply: 98

Ask: # input compound: NS(=O)(=O)OC[C@H]1C[C@@H](Nc2ncncc2C(=O)c2cc([C@@]3(c4cccc(Cl)c4)CCCN3)cs2)C[C@@H]1O (mixture of isomers) [I-38] ; wanted: its Percent Inhibition
Reply: 101

Ask: # input compound: CN[C@H](c1cccc(Cl)c1)c1csc(C(=O)c2cncnc2N[C@@H]2C[C@H](COS(N)(=O)=O)[C@@H](O)C2)c1 (single isomer, unassigned) [I-47a] ; wanted: its Percent Inhibition
Reply: 99

Ask: # input compound: NS(=O)(=O)OC[C@H]1C[C@@H](Nc2ncncc2C(=O)c2cc([C@@H](O)c3ccccc3Cl)c(Cl)s2)C[C@@H]1O (mixture of isomers) ; wanted: its Percent Inhibition
Reply: 96

Ask: # input compound: "NS(=O)(=O)OC[C@H]1C[C@@H](Nc2ncncc2C(=O)c2cc(C(=O)c3ccccc3)c(Cl)s2)C[C@@H]1O" ; wanted: its Percent Inhibition
Reply: 36

Ask: # input compound: C[C@](O)(c1csc(C(=O)c2cncnc2N[C@@H]2C[C@H](COS(N)(=O)=O)[C@@H](O)C2)c1)c1cccc(Br)n1 (mixture of isomers) ; wanted: its Percent Inhibition
Reply: 99

Ask: # input compound: NS(=O)(=O)OC[C@H]1C[C@@H](Nc2ncncc2C(=O)c2cc([C@@H]3OCCc4ccc(Cl)nc43)c(Cl)s2)C[C@@H]1O (single isomer, unassigned) [I-276b] ; wanted: its Percent Inhibition
Reply: 101

Ask: # input compound: Cc1sc(C(=O)c2cncnc2N[C@@H]2C[C@H](COS(N)(=O)=O)[C@@H](O)C2)cc1[C@H](O)c1cccc(Cl)c1 (single isomer, unassigned) [I-11a] ; wanted: its Percent Inhibition
Reply: 93

Ask: # input compound: Cc1sc(C(=O)c2cncnc2N[C@@H]2C[C@H](COS(N)(=O)=O)[C@@H](O)[C@@H]2F)cc1[C@H]1OCCc2ccc(Cl)cc21 (single isomer, unassigned) [I-264b] ; wanted: its Percent Inhibition
Reply: 98

Ask: # input compound: CN1Cc2ccc(Cl)cc2[C@@H]1c1csc(C(=O)c2cncnc2N[C@@H]2C[C@H](COS(N)(=O)=O)[C@@H](O)C2)c1 (mixture of isomers) [I-265] ; wanted: its Percent Inhibition
Reply: 97

Where do the numbers come from? From patent US10780090B2.
